assayed target: SARS-CoV-2 spike RBD (wild type), recombinant (SARS-CoV-2, UniProt P0DTC2 P0DTC2:319-541)
assay text: ELONA
pKd: −log10 of the molar value.
observed property: pKd

>>> print(df.to_string())
                                     binder  observed_measurement
0  ACUUGGCCAAUUACCGUAGUUUUUGUAGUCUGCAGGGCCAAGUG (ssRNA) [#5-2-15 full]                  7.64

The reported measurements were obtained from patent US20260209750.
